# System: U2OS
# Protocol: Multiplex assay against U2OS
# Format: toxicity, cell-based
# Condition Details: human, 12 h, 1 µM, compound concentration 1 uM, replicate 1
# cutoff 10% applies to Population Pyknosed Nuclei (%); >= gives met, < gives not met

Previously resolved entries follow.
O=S(=O)(c1ccccc1)c1cnc2c(N3CCNCC3)cccc2c1 [INTEPIRDINE]
not met
CSc1ccccc1N1CCN(CCCCCC(=O)NC2CCCc3ccccc32)CC1.Cl (configuration not stated)
met
Cc1ccc(F)cc1C(=O)Nc1ccc(C(=O)N2Cc3cccn3Cc3ccccc32)c(Cl)c1
met
COc1ccc2c(c1)C(C(=O)N(Cc1ccc(N(C)C)cc1)c1ccc(C(C)C)cc1)CCC2.Cl (configuration not stated)
not met
CC[C@H]1OC(=O)[C@H](C)[C@@H](O[C@H]2C[C@@](C)(OC)[C@@H](O)[C@H](C)O2)[C@H](C)[C@@H](O[C@@H]2O[C@H](C)C[C@H](N(C)C)[C@H]2O)[C@@]2(C)CC(C)=C(O2)[C@H](C)[C@@H](O)[C@]1(C)O
met
CCNC1(C(N)=O)CCN(c2ncnc3c2nc(-c2ccccc2Cl)n3-c2ccc(Cl)cc2)CC1
not met

Next compound, please.
Q: Confirm if Population Pyknosed Nuclei (%) reported for the compound `CCOc1c2c(c(OCC)c3ncccc13)CN(c1ccc(CS(=O)(=O)NC(=O)Cc3ccccc3OC)cc1C)C2=O` is 10% or above.
Ans: not met

====

# Test system: HEK-293T
# Protocol: Multiplex assay against HEK293T
# Assay type: toxicity, cell-based
# Condition Details: human, 12 h, 10 µM, compound concentration 10 uM, replicate 1
Assay Endpoint: Population Mitotic Cells (%)
One number for each entry, in %.

Please review the entries below; each comes with its answer.
C[C@@H]1C[C@H]2[C@@H]3CCC4=CC(=O)C=C[C@]4(C)[C@@]3(F)[C@@H](O)C[C@]2(C)[C@@]1(O)C(=O)CO
62
Cc1ccccc1C(=O)Nc1ccc(C(=O)N2CCCC(N(C)C)c3ccccc32)cc1.Cl (configuration not stated)
46
Cc1ccc(F)cc1C(=O)Nc1ccc(C(=O)N2Cc3cccn3Cc3ccccc32)c(Cl)c1
53
CC1(COc2ccc3c(c2)ncn3-c2ccc3cccc(N4CCC(N)CC4)c3n2)COC1
30
CC(=O)NCCc1c(Cc2ccccc2)[nH]c2ccccc12
62

Each molecule below has a reported value. Please supply its Population Mitotic Cells (%).
1. C[C@H]1[C@H]2CC[C@H]3[C@@H]4CC=C5C[C@@H](N(C)C)CC[C@]5(C)[C@H]4CC[C@]23CN1C
2. Cl.Clc1ccc2nsnc2c1NC1=NCCN1 [TIZANIDINE HYDROCHLORIDE]
3. O=C(O)c1cc2ccccc2c(Cc2c(O)c(C(=O)O)cc3ccccc23)c1O
4. COc1ccccc1N1CCN(CCCCNC(=O)c2ccc3ccccc3c2)CC1.Cl

Ans:
1: 65; 2: 70; 3: 65; 4: 28

Each molecule below has a reported value. Please supply its Population Mitotic Cells (%).
1. CC[C@H]1OC(=O)[C@H](C)[C@@H](O[C@H]2C[C@@](C)(OC)[C@@H](O)[C@H](C)O2)[C@H](C)[C@@H](O[C@@H]2O[C@H](C)C[C@H](N(C)C)[C@H]2O)[C@@]2(C)CC(C)=C(O2)[C@H](C)[C@@H](O)[C@]1(C)O
2. CCCC(CCC)C(=O)O
3. CN1CCN(c2nc3cc(C(F)(F)F)ccc3n3cccc23)CC1.O=C(O)/C=C\C(=O)O.O=C(O)/C=C\C(=O)O
4. COc1ccc2c(c1)C(C(=O)N(Cc1ccc(N(C)C)cc1)c1ccc(C(C)C)cc1)CCC2.Cl (configuration not stated)
5. COc1c(C)cc(NC(=O)c2nn(Cc3ccc(F)cc3)c3c2CN(C(=O)c2ccc[nH]2)C[C@]3(C)C(N)=O)cc1C
6. Cc1ccc(/C(=C\CN2CCCC2)c2ccccn2)cc1
7. N#Cc1c(N)nc(SCc2csc(-c3ccc(Cl)cc3)n2)c(C#N)c1-c1ccc(OCCO)cc1

Ans:
44
66
31
39
32
56
42

Each molecule below has a reported value. Please supply its Population Mitotic Cells (%).
1. Oc1c(CN2CCN(c3ccccn3)CC2)cc(Cl)c2cccnc12
2. c1cc(OCCCN2CCCCC2)ccc1CN1CCCCC1
3. N[C@@]1(C(=O)O)CO[C@H]2[C@H](C(=O)O)[C@H]21
4. O=C(NCCO)c1cccc(-c2cc(Nc3ccc(OC(F)(F)F)cc3)ncn2)c1

Ans:
1. 28
2. 59
3. 72
4. 44
